// provenance: patent US20160304556A1

Molecular target: IDH1 R132C (Homo sapiens, UniProt O75874, R132C)
Sequence (O75874 whole entry R132C): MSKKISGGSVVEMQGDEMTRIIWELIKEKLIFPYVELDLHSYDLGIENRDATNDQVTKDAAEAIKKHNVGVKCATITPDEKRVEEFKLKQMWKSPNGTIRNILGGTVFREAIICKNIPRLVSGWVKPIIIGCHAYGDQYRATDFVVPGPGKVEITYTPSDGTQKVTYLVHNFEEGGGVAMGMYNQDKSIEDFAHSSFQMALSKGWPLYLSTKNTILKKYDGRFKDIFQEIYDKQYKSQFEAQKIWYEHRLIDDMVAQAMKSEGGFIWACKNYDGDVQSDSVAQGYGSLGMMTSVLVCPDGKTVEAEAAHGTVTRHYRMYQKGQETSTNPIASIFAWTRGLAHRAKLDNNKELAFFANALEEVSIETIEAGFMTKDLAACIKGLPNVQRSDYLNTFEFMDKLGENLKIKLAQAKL
Assay: In vitro NADPH depletion assay for IDH1m R132C inhibitors
Settings: enzyme, diaphorase/resazurin readout, read-out: IDH R132C IC50
Entries and their IC50 values follow.

1) COC(=O)N1CC[C@H]1C(=O)N(c1cccc(F)c1)[C@H](C(=O)NC1CC(F)(F)C1)c1ccccc1Cl [Compound 106] | 100 to 500 nM
2) COC(=O)N1CCN(C)C[C@H]1C(=O)N(c1cccc(F)c1)[C@H](C(=O)NC1CC(F)(F)C1)c1ccccc1Cl [Compound 80] | 100 to 500 nM
3) COC(=O)N1C[C@@H](N)C[C@H]1C(=O)N(c1cccc(F)c1)[C@H](C(=O)NC1CC(F)(F)C1)c1ccccc1Cl [Compound 89] | 500 to 1000 nM
4) O=C(NC1CC(F)(F)C1)C(c1ccccc1Cl)N(C(=O)Cn1cnc(Cl)c1Cl)c1cccc(F)c1 (stereo not shown) [Compound 35] | ≤ 100 nM
5) COC(=O)NCC(=O)N(c1cccc(F)c1)[C@H](C(=O)N[C@@H]1CCC(F)(F)C1)c1ccccc1Cl [Compound 98] | 100 to 500 nM
6) COC(=O)N1C[C@H](OCCN(C)C)C[C@H]1C(=O)N(c1cccc(F)c1)[C@H](C(=O)NC1CC(F)(F)C1)c1ccccc1Cl [Compound 104] | 1000 to 2000 nM

Here is another molecule to look at.
The recorded IC50 for entry COC(=O)N1C[C@H](OCCO)C[C@H]1C(=O)N(c1cccc(F)c1)[C@H](C(=O)NC1CC(F)(F)C1)c1ccccc1Cl [Compound 90] equals ≤ 100 nM

* * *

Entries and their pIC50 values follow.
Target: IDH1 R132C (Homo sapiens, UniProt O75874, R132C)
Experiment: In vitro NADPH depletion assay for IDH1m R132C inhibitors
Details: enzyme, diaphorase/resazurin readout, read-out: IDH R132C IC50
pIC50: −log10 of the molar value.

1. COC(=O)N[C@@H](CO)C(=O)N(c1cccc(F)c1)[C@@H](C(=O)NC1CCCCC1)c1ccccc1Cl | 6.30 to 7.00
2. COC(=O)NCC(=O)N(c1cccc(F)c1)C(C(=O)NC1CCC(F)CC1)c1ccccc1Cl (stereo not shown) | 6.30 to 7.00
3. O=C(NC1CC(F)(F)C1)C(c1ccccc1Cl)N(C(=O)c1ccnn1-c1ncccn1)c1cccc(F)c1 (stereo not shown) | 6.30 to 7.00
4. COC(=O)NCC(=O)N(c1cccc(F)c1)[C@H](C(=O)N[C@@H]1CCCCC1(F)F)c1ccccc1Cl | 6.30 to 7.00
5. COC(=O)N1CCN(C(C)=O)C[C@H]1C(=O)N(c1cccc(F)c1)[C@H](C(=O)NC1CC(F)(F)C1)c1ccccc1Cl | ≥ 7.00
6. COC(=O)N1[C@@H](C(=O)N(c2cccc(F)c2)[C@H](C(=O)NC2CC(F)(F)C2)c2ccccc2Cl)CCC1(C)C (single isomer, unassigned) | ≥ 7.00

The recorded pIC50 for entry O=C(NC1CC(F)(F)C1)[C@@H](c1ccccc1Cl)N(C(=O)[C@@H]1CCN1c1ccccn1)c1cccc(F)c1 (stereo in doubt) equals ≥ 7.00

* * *

Molecular target: IDH1 R132H (Homo sapiens, UniProt O75874, R132H)
Sequence (O75874 whole entry R132H): as the sequence (O75874 whole entry R132C) above, with C132H counted along it
Assay: In vitro NADPH depletion assay for IDH1m R132H inhibitors
Details: enzyme, diaphorase/resazurin readout, read-out: IDH R132H IC50
reported_endpoint: IC50

1) COC(=O)N[C@@H](CO)C(=O)N(c1cccc(F)c1)C(C(=O)NC1CC(F)(F)C1)c1ccccc1Cl (some centres unmarked) | 100 to 500 nM
2) Cc1ccccc1[C@@H](C(=O)NC1CCCCC1)N(C(=O)[C@H]1CCCCN1C(=O)N(C)C)c1cccc(F)c1 | 500 to 1000 nM
3) O=C(NC1CCCCC1)C(c1ccccc1Cl)N(C(=O)Cn1cncn1)c1cccc(F)c1 (centres unmarked) | ≤ 100 nM
4) O=C(NC1CC(F)(F)C1)[C@@H](c1ccccc1Cl)N(C(=O)[C@@H]1Cc2ccccc2N1)c1cc(F)cc(F)c1 (single isomer, unassigned) | 100 to 500 nM
5) CC(=O)N1CCC[C@H]1C(=O)N(c1cccc(F)c1)[C@H](C(=O)NC1CCCCC1)c1ccccc1C | 100 to 500 nM

The recorded IC50 for entry O=C(NC1CC(F)(F)C1)C(c1ccccc1Cl)N(C(=O)Cc1ccncc1)c1cccc(F)c1 (centres unmarked) equals ≤ 100 nM

The recorded IC50 for entry `O=C(NC1CC(F)(F)C1)[C@H](c1ccccc1Cl)N(C(=O)[C@@H]1C[C@@H](O)CN1c1ncccn1)c1cccc(F)c1` equals ≤ 100 nM

The recorded IC50 for entry O=C(NC1CC(F)(F)C1)[C@H](c1ccccc1Cl)N(C(=O)[C@@H]1Cc2ccccc2N1)c1cc(F)cc(F)c1 (single isomer, unassigned) equals 100 to 500 nM

The recorded IC50 for entry O=C(NC1CC(F)(F)C1)C(c1ccccc1Cl)N(C(=O)Cn1cncn1)c1cccc(F)c1 (centres unmarked) equals 100 to 500 nM

The recorded IC50 for entry `CC(C)(C)OC(=O)N1CCC[C@H]1C(=O)N(c1cccc(F)c1)[C@H](C(=O)NC1CC(F)(F)C1)c1ccccc1Cl` equals 500 to 1000 nM

The recorded IC50 for entry `COC(=O)N1CC[C@H](O)[C@H]1C(=O)N(c1cccc(F)c1)[C@H](C(=O)NC1CC(F)(F)C1)c1ccccc1Cl` equals ≤ 100 nM

The recorded IC50 for entry O=C(NC1CCC(F)(F)CC1)C(c1ccccc1Cl)N(C(=O)Cn1cncn1)c1cccc(F)c1 (centres unmarked) equals 100 to 500 nM

The recorded IC50 for entry O=C(NC1CC(F)(F)C1)C(c1ccccc1Cl)N(C(=O)CNc1cccnc1F)c1cccc(F)c1 (centres unmarked) equals ≤ 100 nM

The recorded IC50 for entry CCOC(=O)NCC(=O)N(c1cccc(F)c1)C(C(=O)NC1CC(F)(F)C1)c1ccccc1Cl (centres unmarked) equals 100 to 500 nM
